Attribution: ChEMBL document CHEMBL4007438

Reported inhibition at 2 min values for a set of molecules
# System Tested: OCT1 (SLC22A1) (Homo sapiens, UniProt O15245)
# Sequence (O15245 whole entry): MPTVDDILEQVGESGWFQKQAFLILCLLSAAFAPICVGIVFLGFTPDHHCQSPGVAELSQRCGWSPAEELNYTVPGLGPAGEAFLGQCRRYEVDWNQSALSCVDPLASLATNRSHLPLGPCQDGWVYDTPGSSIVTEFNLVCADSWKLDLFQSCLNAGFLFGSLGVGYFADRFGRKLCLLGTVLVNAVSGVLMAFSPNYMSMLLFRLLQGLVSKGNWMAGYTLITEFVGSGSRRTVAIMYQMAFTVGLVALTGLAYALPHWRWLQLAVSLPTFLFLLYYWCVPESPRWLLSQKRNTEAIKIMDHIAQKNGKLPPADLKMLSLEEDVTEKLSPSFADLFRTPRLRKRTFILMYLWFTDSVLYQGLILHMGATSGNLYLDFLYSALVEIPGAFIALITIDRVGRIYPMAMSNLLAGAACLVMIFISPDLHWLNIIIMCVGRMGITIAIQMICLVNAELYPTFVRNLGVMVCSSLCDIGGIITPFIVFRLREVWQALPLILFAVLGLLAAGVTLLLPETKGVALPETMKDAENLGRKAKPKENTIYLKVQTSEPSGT
# Measurement Description: Inhibition of human OCT1 expressed in HEK293 cells assessed as decrease in uptake of ASP+ after 2 mins by fluorescence assay
# Format: cell-based
# Conditions: human, HEK293 cells that express human OCT1, probe ASP+
Readout Type: inhibition at 2 min (%)

                                   molecule  measurement_units  endpoint_value
0  Cc1ncc(C[n+]2csc(CCO)c2C)c(N)n1 [THIAMINE ION]                  %            -1.5
1  CN/C(=N/CCSCc1nc[nH]c1C)NC#N [CIMETIDINE]                  %            4.13
